B1: CDKL4 (parent)
chain: AVKKFVESEDDPVVKKIALREIRM

# Variants of: B1
# Test Summary: protein stability index of a GFP-peptide fusion (GPS, HEK-293T) (PSI 1-6); higher = more stable;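 further: lentivirally expressed fusions sorted by FACS into six bins by GFP to DsRed ratio, PSI derived from sequencing read proportions per bin multiplied by bin number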
# Applied Conditions: c terminus: a fixed tail appended
Form field: protein stability index (one value per entry).
Readout: protein stability index

AVTKFVESEDDPVVKKIALREIRM 2.86
AVKKFVESEDDPEVKKIALREIRM 3.35
AVKKFVESEDDPVVKKIASREIRM 4.41
AVKKFVESEDDPVVCKIALREIRM 2.52
AVKKFVESEADPVVKKIALREIRM 2.58
AVKKFVESEDIPVVKKIALREIRM 2.58
